Target: rat diaphorase (Rattus norvegicus, UniProt P05982)
Construct: purchased Sigma
Sequence (P05982 2-274 limits assumed): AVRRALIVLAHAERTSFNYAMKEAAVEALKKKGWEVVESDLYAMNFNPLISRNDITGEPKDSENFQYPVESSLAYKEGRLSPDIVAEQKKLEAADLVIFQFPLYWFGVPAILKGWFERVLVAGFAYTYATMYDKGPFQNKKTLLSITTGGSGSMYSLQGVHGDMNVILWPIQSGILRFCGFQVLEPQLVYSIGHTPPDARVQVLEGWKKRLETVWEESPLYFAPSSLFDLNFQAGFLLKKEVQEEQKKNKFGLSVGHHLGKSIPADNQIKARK
Assay type: biochemical
Conditions: 120 min; 10 uM NADH
Endpoint Label: Fluorescence time course, Rat (FLUs)
Provide the reading as a plain figure in FLUs.

For orientation, consider the following solved cases.
CC1=C(C)C(=O)C(C(C)(C)CC(=O)N(C)CCN(C)C(=O)Oc2ccc3c(c2)Oc2cc(O)ccc2C32OC(=O)c3ccccc32)=C(C)C1=O (stereo not shown) ... 182132
CC1=CC(=O)C(C)=C(C(C)(C)CC(=O)N(C)CCN(C)C(=O)Oc2ccc3c(c2)Oc2cc(OC(=O)N(C)CCN(C)C(=O)CC(C)(C)C4=C(C)C(=O)C=C(C)C4=O)ccc2C32OC(=O)c3ccccc32)C1=O ... 16666
CC1=C(C)C(=O)C(C(C)(C)CC(=O)N(C)CCN(C)C(=O)Oc2ccc3c(c2)Oc2cc(OC(=O)N(C)CCN(C)C(=O)CC(C)(C)C4=C(C)C(=O)C(C)=C(C)C4=O)ccc2C32OC(=O)c3ccccc32)=C(C)C1=O ... 11149

// next item, Fluorescence time course, Rat requested
Q) Would you mind telling me what Fluorescence time course, Rat value was observed for CC1=CC(=O)C(C)=C(C(C)(C)CC(=O)N(C)CCN(C)C(=O)Oc2ccc3c(c2)Oc2cc(O)ccc2C32OC(=O)c3ccccc32)C1=O (stereo not shown) ?
A) 181077
